Hello, the source for this data is paper PMC2962499, in case you need it.

# System name: fluorescently labeled SpRpn12 (Schizosaccharomyces pombe) (UniProt P50524)
# Test: fluorescence polarisation
Quantity: pKd
// scale note: pKd = -log10(conc_M); give the bare number

Query: Supply measured pKd of NQFEYGVDPNLDVELALALELSMAEERARQEVAAQKSSEETEDKKMQE (domain or fragment) [SpRpn10 residues 196-243 (UIM-containing C-terminal sequence)] in your reply.
Reply: 4.74
